- test.target: BTK-1h (Homo sapiens, UniProt Q06187)
- Construct: The BTK kinase domain was diluted to 2 μM in the buffer, and 2 μM 1h was added; made in house
- Sequence (Q06187 402-655): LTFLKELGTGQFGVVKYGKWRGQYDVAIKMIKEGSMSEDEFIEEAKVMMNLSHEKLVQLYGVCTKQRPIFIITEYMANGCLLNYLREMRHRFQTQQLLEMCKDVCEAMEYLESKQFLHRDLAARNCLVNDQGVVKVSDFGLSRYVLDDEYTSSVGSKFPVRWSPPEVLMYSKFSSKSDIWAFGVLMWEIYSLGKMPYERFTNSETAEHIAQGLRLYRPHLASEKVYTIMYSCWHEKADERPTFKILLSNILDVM
- measurement.description: High-throughput screening with 1h-labeled BTK
- Assay type: binding
- condition.summary: Dataset S2A; 200 μM compound, BTK-1h, 32 °C, 10 min
parameter: FI (BTK-1h)/FI (BTK-1h+Inhibitor) at 620 nm

molecule | result
COC(=O)N[C@H](C(=O)N1CC2(CC2)C[C@H]1c1ncc(-c2ccc3c(c2)C(F)(F)c2cc(-c4ccc5nc([C@@H]6[C@H]7CC[C@H](C7)N6C(=O)[C@@H](NC(=O)OC)C(C)C)[nH]c5c4)ccc2-3)[nH]1)C(C)C [PCM-0215396-001] | 1.05
Cc1c[nH]c2nc(Nc3ccc(N4CCN(C)CC4)c(F)c3)nc(-c3cccc(CC#N)c3)c12 [PCM-0215633-001] | 1.062
CCOc1nc2cccc(C(=O)OC(C)OC(=O)OC3CCCCC3)c2n1Cc1ccc(-c2ccccc2-c2nn[nH]n2)cc1 (stereo not shown) [PCM-0090385-001] | 1.076
COc1cc2nccc(Oc3ccc(NC(=O)Nc4cc(C)on4)c(Cl)c3)c2cc1OC [PCM-0094927-002] | 1.05
O=[N+]([O-])c1ccc(Nc2ccccc2-c2ccccc2)c2nonc12 [PCM-0215806-001] | 1.01
C=CC(=O)Nc1ccc(CN2C(=O)N(c3cc(OC)cc(OC)c3)Cc3cnc(Nc4ccc(N5CCN(C)CC5)cc4)nc32)cc1 [PCM-0215559-001] | 1.041
O=C([O-])CCN1C(=O)/C(=C/c2ccc(-c3ccc([N+](=O)[O-])cc3)o2)SC1=S.[K+] [PCM-0215696-001] | 1.02
O=C(Nc1cccc2c(=O)cc(-c3nn[nH]n3)oc12)c1ccc(OCCCCc2ccccc2)cc1 [PCM-0095155-002] | 1.506
Cc1ccc(C(=O)Nc2ccc(CN3CCN(C)CC3)c(C(F)(F)F)c2)cc1C#Cc1cnc2[nH]ncc2c1 [PCM-0215209-001, GZD824 Dimesylate] | 1.6661
C=CC(=O)Nc1cccc(Nc2nc(Nc3ccc(OCCOC)cc3)ncc2F)c1 [PCM-0095787-002] | 1.288
O=C(O)c1ccc(C=C2SC(=S)N(c3cccc(C(F)(F)F)c3)C2=O)cc1 [PCM-0095759-002] | 1.262
O=c1cc(-c2ccc(O)cc2)oc2cc(O)c(O)c(O)c12 [PCM-0216408-001, Scutellarein] | 1.081
NCC(=O)Nc1ccc(-n2nc(C(F)(F)F)cc2-c2ccc3c(ccc4ccccc43)c2)cc1 [PCM-0094886-003] | 1.095
CC/C(=C(/c1ccc(/C=C/C(=O)O)cc1)c1ccc2[nH]ncc2c1)c1ccc(F)cc1Cl [PCM-0216010-001] | 1.142
O=c1cc(-c2ccccc2)oc2cc(O)c(O)c(O)c12 [PCM-0214670-001] | 1.072
CCCCc1oc2ccccc2c1C(=O)c1cc(I)c(OCCN(CC)CC)c(I)c1.Cl [PCM-0064561-003] | 1.018
Cc1cc(Nc2nc(N[C@@H](C)c3ccc(F)cc3)c(C#N)cc2F)n[nH]1 [PCM-0095250-002] | 1.03
Cc1ccc(NC(=O)Nc2cc(C(F)(F)F)ccc2F)cc1Nc1ccc2c(c1)NC(=O)/C2=C\c1ccc[nH]1 [PCM-0215372-001] | 1.003
O=C(O)c1ccc(N2C(=O)/C(=C/c3ccc(-c4ccc([N+](=O)[O-])cc4)o3)C=C2c2ccccc2)cc1 [PCM-0095764-003] | 0.999
